- measured target: hMCH-1R (Homo sapiens)
- Construct: expressed in transfected cells; host or cells: CHO/Galpha16 cells (stably transfected), membranes
- Sequence (Q99705 whole entry): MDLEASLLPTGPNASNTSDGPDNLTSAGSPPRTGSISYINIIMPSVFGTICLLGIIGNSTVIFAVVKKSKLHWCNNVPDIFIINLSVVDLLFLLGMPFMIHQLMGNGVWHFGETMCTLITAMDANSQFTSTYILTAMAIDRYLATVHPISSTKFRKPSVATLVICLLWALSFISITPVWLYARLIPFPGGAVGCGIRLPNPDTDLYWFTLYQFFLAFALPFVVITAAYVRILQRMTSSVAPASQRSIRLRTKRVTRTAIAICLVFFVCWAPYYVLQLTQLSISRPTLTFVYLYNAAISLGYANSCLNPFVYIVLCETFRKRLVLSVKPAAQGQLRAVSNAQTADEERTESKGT
- experiment summary: MCH-1 receptor binding test (125I-MCH binding to membranes of hMCH-1R transfected CHO/Galpha16 cells)
- cond: membranes of CHO/Galpha16 cells stably transfected with human hMCH-1R, 100 pM 125I-MCH
Structures can show the parent of a compound that is named as a salt.
Documented IC50 across a set of compounds

# compound, IC50, nM
rows = [
    ("OC1CCN(CCc2ccc(CCc3ccc(OCc4ccccc4)nn3)nc2)CC1 [Example 31.10]", 4),
    ("COC1CCN(Cc2ccc(C(=O)Cc3ccc(OCc4ccc(F)cc4)nn3)cc2)CC1 [Example 15.1]", 9),
    ("CN(Cc1ccccc1)c1ccc(CCc2ccc(CN3CCCC3)cc2)nn1 [Example 16.2]", 590),
    ("Fc1ccccc1COc1ccc(CCc2ccc(CN3CCCC3)cc2)nn1 [Example 12.2, trifluoroacetate]", 13),
]
